Measured GI50 values are reported for all entries that follow.
- System: SK-MEL-2
- assay-procedure: NCI tumour cell line growth inhibition, 48 h
Calls of active or inactive are those of the source. No stated cut-off is given here; in the data, active = GI50 up to about 1.1 µM and inactive = higher.

>  <compound>
COc1ccc(O)cc1C(O)c1ccccc1 (stereo not given)

>  <endpoint-result>
> 100 µM (inactive)

$$$$

Exam item: Looking for the measured GI50 of C/C(=N\NC(N)=O)C(CN1CCCCC1)C(c1ccccc1)c1c(O)c2ccccc2oc1=O (stereo not given) , can you help?
Marked response: > 100 µM (inactive)

Exam item: Which value of GI50 has been reported for `O=c1[nH]nc(Cc2ccccc2)n1/N=C/c1ccccc1Cl` in the records?
Marked response: > 100 µM (inactive)

Exam item: Quick one: GI50 of CCOC(CBr)OC1C(=O)OCC1(C)C (stereo not given) ?
Marked response: > 100 µM (inactive)

Exam item: I am curious: what GI50 value has been reported for `Cn1cnc2nc(Cl)nc(NC(C)(C)C(C)(C)O)c21` ?
Marked response: > 100 µM (inactive)

----------
- Test system: OVCAR-4
- assay-procedure: NCI tumour cell line growth inhibition, 48 h
The source made the active and inactive calls. Cut-off read from the data, not from the text of the source: active = GI50 up to about 1.1 µM and inactive = higher.
Listed compounds paired with reported GI50

Reference set (4 entries):
>  <compound>
CN(C)S(=O)(=O)n1cnc(CO)c1

>  <endpoint-result>
> 100 µM (inactive)

$$$$
>  <compound>
CC(C)CN1CN(c2ccccc2)C2(CCN(CC(C)(c3ccc(F)cc3)C3OCCO3)CC2)C1=O (stereo not drawn)

>  <endpoint-result>
5.6 µM (inactive)

$$$$
>  <compound>
O=C1C2CCCCC2C(=O)N1n1c(-c2ccccc2)n[nH]c1=O (stereo not drawn)

>  <endpoint-result>
> 100 µM (inactive)

$$$$
>  <compound>
c1ccc(CN[C@]23C4C5CC6C7C5C2C7[C@@](NCc2ccccc2)(C64)N3Cc2ccccc2)cc1 (stereo partly drawn)

>  <endpoint-result>
> 100 µM (inactive)

$$$$

Exam item: Entry under review: `Cc1c(S(=O)(=O)N/C(=N\O)Nc2ccc(Cl)c(Cl)c2)sc2ccc(Cl)cc12` . Reported GI50?
Marked response: 15.1 µM (inactive)

Exam item: Recorded GI50 of `O=C1OCCC1(Cc1ccc(Cl)cc1)Cc1ccc(Cl)cc1` , please.
Marked response: 36.2 µM (inactive)

----------
- Tested on: SN12C
- assay-procedure: NCI tumour cell line growth inhibition, 48 h
Active and inactive are the calls of the source. Cut-off read from the data, not from the text of the source: active = GI50 up to about 1.1 µM and inactive = higher.
API: response.call in true (1) = active, false (0) = inactive

>  <compound>
O=C1NC2(CCCCCC2)C2CCCCCCC12O (centres undefined)

>  <group-label>
false (0)

$$$$

Exam item: Query: recorded result category for `CC(C)(C)n1nc(C2CC2)cc1NC(=O)Nc1ccc(Cl)cc1` in this test
Marked response: false (0)

Exam item: What classification did CNC(C)C(O)c1ccc2oc3cc(=O)c4ccccc4c-3nc2c1 (centres undefined) end up with in this test?
Marked response: false (0)

Exam item: How did this test come out for `O=[N+]([O-])c1cccc2nc3ccccc3c(NCCCN3CCCCC3)c12` ?
Marked response: true (1)

----------
- System: 786-0
- assay-procedure: NCI tumour cell line growth inhibition, 48 h
The source made the active and inactive calls. No stated cut-off is given here; in the data, active = GI50 up to about 1.1 µM and inactive = higher.
Return exactly one item of active, inactive

For orientation, consider the following solved cases.
>  <compound>
CCN(CC)C(=O)COc1cc2c(O)c3c(O)c(C)c4c(c13)C(=O)C(C)(OC=CC(OC)C(C)C(OC(C)=O)C(C)C(O)C(C)C(O)C(C)C=CC=C(C)C(=O)N2)O4 (stereo not given)

>  <group-label>
inactive

$$$$
>  <compound>
CC(C)C(OC(=O)c1cc(NC(=S)c2ccccc2)ccc1Cl)C(C)C

>  <group-label>
inactive

$$$$
>  <compound>
N=c1c2ccccc2nc2oc3cc([N+](=O)[O-])ccc3n12

>  <group-label>
inactive

$$$$
>  <compound>
O=S(=O)(O)SCCNCCCCCC1CCCCC1

>  <group-label>
inactive

$$$$
>  <compound>
O=C(/C=C/c1ccc(Cl)c(Cl)c1)c1ccc(F)cc1

>  <group-label>
inactive

$$$$

Exam item: Dear all, I need the recorded test outcome for COc1ccc(O)cc1C(O)c1ccccc1 (stereo not given) , thank you.
Marked response: inactive

Exam item: State the result this test recorded for CSCCC(NC(=O)Cc1ccc(C(=O)c2ccccc2)cc1)C(=O)O (stereo not given) .
Marked response: inactive

Exam item: In this assay, the call recorded for `Nc1nc(Cl)c2ncn(Cc3ccccc3CCl)c2n1` was what?
Marked response: inactive

Exam item: Entry `C/C(CC(=O)Nc1ccc([N+](=O)[O-])cc1)=N\Nc1ccc([N+](=O)[O-])cc1[N+](=O)[O-]` : call = ?
Marked response: inactive

Exam item: // outcome(item) with item = `C=C1c2nc3ccccc3n2C=C(c2ccc(Cl)cc2)N1c1ccccc1`
Marked response: inactive

Exam item: Could you please tell me the result logged for OC12c3ccccc3C1CCCCC2N1CCCC1 (stereo not given) in this assay?
Marked response: inactive

Reference source: ChEMBL document CHEMBL1201862
